test system: HCC1569; test: cell number relative to DMSO (% of DMSO); higher = more cells (less growth inhibition / toxicity); conditions: concentration: 10 µM; 24 h
Below, each entry is listed with its recorded cell number.
measured attribute: cell number

* CCCCCCCCCCCCCCCCOCC(COP(=O)([O-])OCC[N+](C)(C)C)OC(C)=O (stereo not drawn) [Enantio-PAF C16] | 100
* Br.Br.CN(C)CCN(C)CCc1ccc(Cl)c(Cl)c1 | 96.6
* COC(C)C(O)(C(=O)OCC1=CCN2CCC(O)C12)C(C)C (stereo not drawn) | 99.8
* CC1CCC2(O)C3(C)CC4(O)OC2(C1O)C1(O)C3(O)C(OC(=O)c2ccc[nH]2)C(O)(C(C)C)C41C (stereo not drawn) | 106
* CCN(CC)c1ncnc2c1ncn2C1OC(COP(=O)([O-])OP(=O)([O-])C(Br)(Br)P(=O)([O-])O)C(O)C1O.[Na+].[Na+].[Na+] (stereo not drawn) | 102
* CN(C)C(=O)Oc1cc(OC(=O)N(C)C)cc(C(O)CNC(C)(C)C)c1.Cl (stereo not drawn) | 104
* COCC1OC(=O)c2coc3c2C1(C)C1=C(C3=O)C2CCC(=O)C2(C)CC1OC(C)=O (stereo not drawn) [Wortmannin] | 43.3
* CC(C)=CCCC1=CC(=O)c2c(O)ccc(O)c2C1=O | 32

---

Below, each entry is listed with its recorded H1.0 immunofluorescence intensity.
test system: HCC1569; assay: H1.0 immunofluorescence intensity relative to DMSO (% of DMSO); higher = stronger H1.0 induction, active = 140 or more; conditions: concentration: 10 µM; 24 h
measured attribute: H1.0 immunofluorescence intensity

* COC1=CC(=O)OC(C=Cc2ccc3c(c2)OCO3)C1 (configuration not stated) [Methysticin] | 89
* Cl.OCC1C(O)C(O)C2C(O)CCN12 (configuration not stated) | 97.5
* N#CC(C#N)=Cc1cc(O)c(O)c(O)c1 [Tyrphostin 25] | 113
* NC(=NN=Cc1ccc(-c2cccc([N+](=O)[O-])c2)o1)N[N+](=O)[O-] [ERK Inhibitor III] | 102
* CCCC[N+]1(C)C2CC(OC(=O)C(CO)c3ccccc3)CC1C1OC12 (configuration not stated) [Scopolamine N-butyl] | 100
* CCCCC(C)C(OC(=O)CC(CC(=O)O)C(=O)O)C(CC(C)CCCCCCC(O)CC(O)C(C)N)OC(=O)CC(CC(=O)O)C(=O)O (configuration not stated) [Fumonisin B2] | 89.7
* CN1C2CC(=O)CC1C(O)C2 (configuration not stated) [6-Hydroxytropinone] | 89.2
* COc1ccc2c(c1)C(=Cc1cnc[nH]1)C(=O)N2 | 107
* CC1CCC2C(C)C3C(CC4C5CCC6CC(O)CCC6(C)C5CCC43C)N2C1 (configuration not stated) [Demissidine] | 92.6
* Cl.Oc1cc2c(cc1O)C1c3ccccc3CNC1CC2 (configuration not stated) [Dihydrexidine hydrochloride] | 103
* Br.CN1CCc2cc(O)cc3c2C1Cc1ccc(O)c(O)c1-3 (stereo not drawn) [R(-)-2,10,11-Trihydroxyaporphine hybrobromide] | 94.3
* C=CCN1CCC23c4c5ccc(O)c4OC2C(=NN=C2CCC4(O)C6Cc7ccc(O)c8c7C4(CCN6CC=C)C2O8)CCC3(O)C1C5 (configuration not stated) [Naloxonazine] | 117
* CCCCCC(C=CC=CCCCCCCCCCC(=O)O)OO (configuration not stated) | 103
* CCC1(O)C(=O)OCc2c1cc1n(c2=O)Cc2cc3ccccc3nc2-1 [(S)-(+)-Camptothecin] | 114
* O=c1[nH]c2ccccc2n1CCCN1CCC(n2c(=O)[nH]c3cc(Cl)ccc32)CC1 [Domperidone] | 109
* COCC1OC(=O)c2coc3c2C1(C)C1=C(C3=O)C2CCC(=O)C2(C)CC1OC(C)=O (configuration not stated) [Wortmannin from Penicillium funiculosum] | 153
* CNc1ccc2oc(CC3OC4(CCC3C)OC(C(C)C(=O)c3ccc[nH]3)C(C)CC4C)nc2c1C(=O)O (configuration not stated) | 124
